assay: self-splicing fitness, log relative to wild type (ln ratio); higher = more splicing; Tetrahymena group I intron in knt gene, E. coli kanamycin selection, DiMSum; sequences stand for … in CUCUCU…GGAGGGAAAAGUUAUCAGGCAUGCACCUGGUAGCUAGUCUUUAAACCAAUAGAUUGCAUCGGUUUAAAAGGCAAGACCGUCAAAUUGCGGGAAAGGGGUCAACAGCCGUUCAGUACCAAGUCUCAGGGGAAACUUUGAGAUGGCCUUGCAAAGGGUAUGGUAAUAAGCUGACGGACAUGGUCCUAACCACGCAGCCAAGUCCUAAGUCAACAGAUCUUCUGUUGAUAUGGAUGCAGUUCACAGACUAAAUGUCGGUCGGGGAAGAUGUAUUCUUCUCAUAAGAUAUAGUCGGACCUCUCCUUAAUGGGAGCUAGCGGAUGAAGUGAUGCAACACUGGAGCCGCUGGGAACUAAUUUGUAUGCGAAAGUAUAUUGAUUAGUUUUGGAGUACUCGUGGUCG; settings: 30 °C;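 further: selection with 25 µg/mL kanamycin versus none on LB agar overnight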
Cut-off -3 on self-splicing fitness (ln), inclusive. At or above means 1; below means -1.

[[record]]
sequence_string = "CCAAAGCAAUAUUACGGAAG"
cat = 1

[[record]]
sequence_string = "UCACAGCAAUAUUACGUACC"
cat = 1

[[record]]
sequence_string = "GGGCAGCAAUAUUACGAAGG"
cat = -1

[[record]]
sequence_string = "GUAGAGCAAUAUUACGGGGU"
cat = -1

[[record]]
sequence_string = "CUUCAGCAAUAUUACGACCG"
cat = 1

[[record]]
sequence_string = "UGCUAGCAAUAUUACGUAAU"
cat = 1

[[record]]
sequence_string = "AGACAGCAAUAUUACGUGUA"
cat = 1

[[record]]
sequence_string = "GUCGAGCAAUAUUACGACCG"
cat = 1

[[record]]
sequence_string = "GCCAAGCAAUAUUACGUAGC"
cat = 1

[[record]]
sequence_string = "AUAAAGCAAUAUUACGCGUC"
cat = -1

[[record]]
sequence_string = "CCAGAGCAAUAUUACGUGCC"
cat = -1

[[record]]
sequence_string = "GCGCAGCAAUAUUACGGACC"
cat = 1

[[record]]
sequence_string = "UCUAAGCAAUAUUACGCAAG"
cat = 1

[[record]]
sequence_string = "GACUAGCAAUAUUACGCGGU"
cat = -1

[[record]]
sequence_string = "UAAUAGCAAUAUUACGUGAU"
cat = -1


* * *

test: self-splicing fitness, log relative to wild type (ln ratio); higher = more splicing; Tetrahymena group I intron in knt gene, E. coli kanamycin selection, DiMSum; sequences stand for … in CUCUCU…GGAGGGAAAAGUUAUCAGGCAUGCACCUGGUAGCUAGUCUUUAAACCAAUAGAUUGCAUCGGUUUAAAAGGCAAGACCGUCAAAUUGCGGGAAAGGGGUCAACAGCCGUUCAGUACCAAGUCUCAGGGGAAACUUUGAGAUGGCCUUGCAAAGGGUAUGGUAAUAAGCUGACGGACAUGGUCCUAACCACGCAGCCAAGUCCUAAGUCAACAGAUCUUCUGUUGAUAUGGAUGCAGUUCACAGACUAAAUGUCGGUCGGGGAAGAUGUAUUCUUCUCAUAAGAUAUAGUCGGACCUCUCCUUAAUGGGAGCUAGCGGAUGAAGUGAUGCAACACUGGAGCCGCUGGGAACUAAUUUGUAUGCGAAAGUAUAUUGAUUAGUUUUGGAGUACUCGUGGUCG; details: 30 °C
property_name: self-splicing fitness (ln)

[[record]]
sequence_string = "GCAUAGCAAUAUUACGUACG"
property_name = "self-splicing fitness (ln)"
numeric_result = -1.42

[[record]]
sequence_string = "CAGUAGCAAUAUUACGCAGC"
property_name = "self-splicing fitness (ln)"
numeric_result = -3.05

[[record]]
sequence_string = "GACCAGCAAUAUUACGGAGA"
property_name = "self-splicing fitness (ln)"
numeric_result = -1.25

[[record]]
sequence_string = "CCCGAGCAAUAUUACGAAUA"
property_name = "self-splicing fitness (ln)"
numeric_result = -3.44

[[record]]
sequence_string = "UGACAGCAAUAUUACGCUCU"
property_name = "self-splicing fitness (ln)"
numeric_result = -0.946

[[record]]
sequence_string = "GCUGAGCAAUAUUACGUAUG"
property_name = "self-splicing fitness (ln)"
numeric_result = -3.21

[[record]]
sequence_string = "UUCCAGCAAUAUUACGGCGA"
property_name = "self-splicing fitness (ln)"
numeric_result = -0.331

[[record]]
sequence_string = "UGAUAGCAAUAUUACGUUCA"
property_name = "self-splicing fitness (ln)"
numeric_result = -0.43

